Molecular target: furin, P09958;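 also: purified furin at 1:10 enzyme:substrate in 50 mM HEPES pH 7.5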
Sequence (P09958 whole entry): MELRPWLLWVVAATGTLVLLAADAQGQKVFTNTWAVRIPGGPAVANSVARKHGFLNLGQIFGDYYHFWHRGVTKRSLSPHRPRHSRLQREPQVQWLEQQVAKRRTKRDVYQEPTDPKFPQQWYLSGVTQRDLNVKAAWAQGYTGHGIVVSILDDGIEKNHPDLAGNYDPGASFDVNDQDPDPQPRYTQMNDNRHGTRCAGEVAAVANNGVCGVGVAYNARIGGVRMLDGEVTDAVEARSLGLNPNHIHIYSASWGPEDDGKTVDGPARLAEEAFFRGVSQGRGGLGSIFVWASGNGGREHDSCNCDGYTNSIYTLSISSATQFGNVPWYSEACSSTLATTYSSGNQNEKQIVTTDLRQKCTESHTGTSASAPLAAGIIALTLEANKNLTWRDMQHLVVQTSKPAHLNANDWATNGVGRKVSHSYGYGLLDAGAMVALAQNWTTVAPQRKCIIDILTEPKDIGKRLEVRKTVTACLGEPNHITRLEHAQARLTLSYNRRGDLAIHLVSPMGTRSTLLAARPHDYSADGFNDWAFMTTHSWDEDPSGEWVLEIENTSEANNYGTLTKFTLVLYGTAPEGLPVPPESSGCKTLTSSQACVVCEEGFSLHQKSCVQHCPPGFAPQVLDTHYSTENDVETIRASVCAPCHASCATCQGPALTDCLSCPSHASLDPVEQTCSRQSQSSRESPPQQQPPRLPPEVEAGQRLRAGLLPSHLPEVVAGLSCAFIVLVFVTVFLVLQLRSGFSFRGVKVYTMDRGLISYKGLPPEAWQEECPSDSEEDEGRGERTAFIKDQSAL
Assay: furin cleavage Z-score vs untreated control; higher = more cleavage, active = 3.5 or more, inactive = 1 or less, 8 variable residues between constant flanks
Settings: 15 min
The other results are listed elsewhere or left out. No count for the full screen is at hand.
Answer with one of the outcomes given here: active, inactive

Some solved cases for reference:
# seq.string, label.value
records = [
    ("CAGKRRSRRQAGNASASA [FS-1456]", "active"),
    ("CASKRRDKRWAGNASASA [FS-193]", "active"),
    ("CATTPCSGRWAGNASASA [HC1913]", "inactive"),
    ("CANYTIFKIRAGNASASA [HC472]", "inactive"),
    ("CASIPCSAHLAGNASASA [HC2484]", "inactive"),
]

Let us examine a further case.
Enquiry: Recorded test outcome, item CATTECSGSWAGNASASA [HC1872]
Return: inactive
